Listed molecules paired with reported 100 μM relative viability
Tested on: Neuro2A cells
experimental_details: Toxicity to Neuro2A cells (MTT)
Format: cell-based
condition_set: 100 μM, 12 hours, control = 1
Experimental: 6. Neuro2A cells were seeded in 96-well plate at a density of 25,000 cells/well the day before the experiment starts; 7. After the cells reach 50˜60% confluency, media was taken out, and 100 μL of fresh media was added to each well; 8. […] 9. […] Absorbance was measured at 570 nm. Assay for Determining Toxicity to HEK293 and Neuro2A Cells • 1. […] Absorbance was measured at 570 nm.
assay_readout: 100 μM relative viability

[[record]]
molecule = "NC(=O)c1ccc[n+]([C@@H]2O[C@H](CO)C(O)C2F)c1 (some centres unmarked) [ara-F-NR]"
target_entity = "Neuro2A cells"
experimental_value = 0.831

[[record]]
molecule = "NC(=O)c1ccc[n+]([C@@H]2O[C@H](COP(=O)([O-])OP(=O)(O)OC[C@H]3O[C@@H](n4cnc5c(N)ncnc54)[C@H](O)[C@@H]3O)[C@@H](O)[C@@H]2F)c1 [ara-F-NAD, 2′-deoxy-2′-fluoro-arabino-NAD^+]"
target_entity = "Neuro2A cells"
experimental_value = 0.924

[[record]]
molecule = "NC(=O)c1ccc[n+]([C@@H]2O[C@H](COP(=O)([O-])O)C(O)C2F)c1 (some centres unmarked) [ara-F-NMN]"
target_entity = "Neuro2A cells"
experimental_value = 0.874

[[record]]
molecule = "NC(=O)c1ccc[n+]([C@@H]2O[C@H](COP(=O)([O-])O)C(O)C2F)c1 (some centres unmarked) [ribo-F-NMN]"
target_entity = "Neuro2A cells"
experimental_value = 0.905

[[record]]
molecule = "NC(=O)c1ccc[n+]([C@@H]2O[C@H](CO)C(O)[C@@H]2F)c1 (some centres unmarked) [ribo-F-NR]"
target_entity = "Neuro2A cells"
experimental_value = 0.771

